- System name: CDK12 (nuclear staining in CAL-120 cells) (Homo sapiens)
- Construct: endogenous in cells; host or cells: CAL-120 human breast cancer cells (DSMZ ACC 459)
- Sequence (Q9NYV4 whole entry): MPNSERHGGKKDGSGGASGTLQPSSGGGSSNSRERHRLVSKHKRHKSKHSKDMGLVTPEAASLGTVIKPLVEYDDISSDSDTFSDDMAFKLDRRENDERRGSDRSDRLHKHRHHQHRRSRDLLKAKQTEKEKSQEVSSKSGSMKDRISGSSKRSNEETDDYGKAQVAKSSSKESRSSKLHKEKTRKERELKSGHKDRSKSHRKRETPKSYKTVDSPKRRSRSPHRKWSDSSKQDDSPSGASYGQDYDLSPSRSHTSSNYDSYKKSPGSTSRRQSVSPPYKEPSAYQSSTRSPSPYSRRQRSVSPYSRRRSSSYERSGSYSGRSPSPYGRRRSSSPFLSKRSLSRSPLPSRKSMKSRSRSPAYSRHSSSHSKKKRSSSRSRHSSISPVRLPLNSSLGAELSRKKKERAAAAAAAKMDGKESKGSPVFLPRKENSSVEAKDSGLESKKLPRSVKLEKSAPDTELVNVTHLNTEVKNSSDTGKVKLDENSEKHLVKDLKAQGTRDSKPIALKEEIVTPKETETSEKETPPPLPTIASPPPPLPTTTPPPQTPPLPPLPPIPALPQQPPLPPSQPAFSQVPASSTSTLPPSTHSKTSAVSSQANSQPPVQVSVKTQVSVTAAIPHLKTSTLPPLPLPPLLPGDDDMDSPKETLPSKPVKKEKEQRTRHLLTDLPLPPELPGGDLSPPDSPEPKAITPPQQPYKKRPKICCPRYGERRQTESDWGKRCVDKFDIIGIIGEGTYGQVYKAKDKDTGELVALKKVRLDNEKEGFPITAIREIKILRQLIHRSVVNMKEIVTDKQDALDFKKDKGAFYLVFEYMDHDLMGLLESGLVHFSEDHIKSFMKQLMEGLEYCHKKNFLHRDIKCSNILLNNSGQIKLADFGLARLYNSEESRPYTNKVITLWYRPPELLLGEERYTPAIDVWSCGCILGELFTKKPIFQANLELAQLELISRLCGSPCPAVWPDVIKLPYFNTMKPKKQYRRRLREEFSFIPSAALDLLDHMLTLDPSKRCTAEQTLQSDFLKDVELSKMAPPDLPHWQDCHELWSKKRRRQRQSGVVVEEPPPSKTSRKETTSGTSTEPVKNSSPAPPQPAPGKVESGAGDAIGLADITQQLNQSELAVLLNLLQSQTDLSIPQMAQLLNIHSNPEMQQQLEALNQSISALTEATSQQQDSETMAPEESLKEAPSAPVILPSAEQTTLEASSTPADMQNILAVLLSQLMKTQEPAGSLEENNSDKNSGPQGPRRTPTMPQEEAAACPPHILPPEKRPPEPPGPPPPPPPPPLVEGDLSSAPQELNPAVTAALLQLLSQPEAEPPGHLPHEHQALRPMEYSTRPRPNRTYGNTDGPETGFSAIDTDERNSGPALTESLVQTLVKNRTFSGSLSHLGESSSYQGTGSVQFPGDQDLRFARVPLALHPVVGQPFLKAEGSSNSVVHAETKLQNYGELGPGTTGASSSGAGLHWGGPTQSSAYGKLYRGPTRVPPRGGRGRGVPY
- Sequence (O75909 whole entry partner): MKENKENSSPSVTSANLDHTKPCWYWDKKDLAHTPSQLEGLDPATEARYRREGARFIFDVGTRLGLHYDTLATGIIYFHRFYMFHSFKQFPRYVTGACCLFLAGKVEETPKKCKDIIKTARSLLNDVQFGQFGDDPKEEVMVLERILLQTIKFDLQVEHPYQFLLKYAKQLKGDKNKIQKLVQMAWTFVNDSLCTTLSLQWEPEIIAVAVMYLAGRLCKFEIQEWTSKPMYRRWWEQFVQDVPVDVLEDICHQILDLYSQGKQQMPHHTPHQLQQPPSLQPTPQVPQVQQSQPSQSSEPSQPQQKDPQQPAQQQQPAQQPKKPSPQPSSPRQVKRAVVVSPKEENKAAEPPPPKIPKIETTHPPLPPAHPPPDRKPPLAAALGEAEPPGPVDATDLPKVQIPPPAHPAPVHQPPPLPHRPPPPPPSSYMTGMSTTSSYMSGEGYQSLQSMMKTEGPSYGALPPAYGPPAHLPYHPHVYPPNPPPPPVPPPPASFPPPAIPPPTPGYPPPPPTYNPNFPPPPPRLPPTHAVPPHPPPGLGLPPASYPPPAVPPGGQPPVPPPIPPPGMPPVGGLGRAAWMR
- Test: CDK12 nuclear protein level: immunofluorescence/high content analysis (CAL-120)
- Type: cell-based
- Run parameters: ratio of IC50 CDK12 high ATP kinase assay to DC50 CDK12 degradation (IF, CAL-120)
Observed property: (IC50 CDK12 high ATP) to (Degradation DC50 CDK12) ratio

A = OC[C@H]1CCCCN1c1nc(NCc2nc3ccccc3[nH]2)n2ncc(Br)c2n1
B = Fc1cc2nc(CNc3nc(N4CCOCC4)nc4c(C5CC5)cnn34)[nH]c2cc1F
C = Fc1ccc2[nH]c(CNc3nc(N4CCOCC4)nc4c(CC(F)F)cnn34)nc2c1F.O=C(O)C(F)(F)F
Request: // ascending sort on recorded (IC50 CDK12 high ATP) to (Degradation DC50 CDK12) ratio # answer = labels listed in requested order
Response: A, B, C
(A: 202, B: 387, C: 852)

====

- System name: CDK12/CycK (Homo sapiens)
- Sequence (Q9NYV4 with tags, fused parts or gaps): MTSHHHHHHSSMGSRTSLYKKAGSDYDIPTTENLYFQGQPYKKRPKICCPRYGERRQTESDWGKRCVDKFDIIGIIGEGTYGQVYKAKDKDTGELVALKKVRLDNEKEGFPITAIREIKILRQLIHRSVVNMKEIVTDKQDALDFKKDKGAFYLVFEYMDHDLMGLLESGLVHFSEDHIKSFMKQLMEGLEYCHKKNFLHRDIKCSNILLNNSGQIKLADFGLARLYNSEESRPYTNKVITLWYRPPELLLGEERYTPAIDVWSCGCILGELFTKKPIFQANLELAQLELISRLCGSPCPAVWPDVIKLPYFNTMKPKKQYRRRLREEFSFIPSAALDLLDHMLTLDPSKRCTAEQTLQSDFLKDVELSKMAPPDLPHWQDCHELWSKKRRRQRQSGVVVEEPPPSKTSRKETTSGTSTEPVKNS
- Sequence (O75909 1-300 partner limits assumed): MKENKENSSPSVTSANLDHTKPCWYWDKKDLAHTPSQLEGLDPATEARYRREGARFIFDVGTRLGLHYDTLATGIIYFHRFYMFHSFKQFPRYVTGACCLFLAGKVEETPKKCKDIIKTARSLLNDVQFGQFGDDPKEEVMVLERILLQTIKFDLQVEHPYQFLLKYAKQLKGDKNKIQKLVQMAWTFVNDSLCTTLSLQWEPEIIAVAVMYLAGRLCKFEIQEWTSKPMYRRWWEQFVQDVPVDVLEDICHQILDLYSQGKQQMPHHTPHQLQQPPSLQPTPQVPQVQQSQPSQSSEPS
- Test: CDK12/CycK high ATP kinase assay (TR-FRET, 2 mM ATP)
- Run parameters: 2 mM ATP (high ATP); median; read-out: CDK12/CyclinK, 2 mM ATP (high ATP), IC50-[mol/l] (median)
pIC50: −log10 of the molar value.
Observed property: pIC50

Some compounds with known pIC50 results, for comparison:
Fc1ccc2[nH]c(CNc3nc(N4CCOCC4)nc4c(CC(F)(F)F)cnn34)nc2c1F: 5.67
CN1CCN(c2nc(NCc3nc4c(F)cccc4[nH]3)n3ncc(C4CC4)c3n2)CC1: 4.99
Brc1cnn2c(NCc3nc4ccccc4[nH]3)nc(N3CCCCC3)nc12: 5.48

P = Brc1cnn2c(NCc3nc4ccccc4[nH]3)nc(N3CCC4(CCN4)CC3)nc12
Q = CN(CC(C)(C)O)c1nc(NCc2nc3c(F)c(Cl)ccc3[nH]2)n2ncc(C3CC3)c2n1
R = Brc1cnn2c(NCc3nnc(-c4ccccc4)[nH]3)nc(N3CCOCC3)nc12
S = Fc1ccc2[nH]c(CNc3nc(N4CCOCC4)nc4c(Br)cnn34)nc2c1
T = CN(CC(C)(C)O)c1nc(NCc2nc3cc(OC(F)(F)F)ccc3[nH]2)n2ncc(Br)c2n1
Request: // ranking: key=pIC50, reverse=True List the labels according to the requested ordering.
Response: Q, T, S, R, P
(Q: 6.63, T: 6.36, S: 5.65, R: 5.36, P: 4.97)

====

- System name: CDK12 (nuclear staining in CAL-120 cells) (Homo sapiens)
- Construct: endogenous in cells; host or cells: CAL-120 human breast cancer cells (DSMZ ACC 459)
- Test: CDK12 nuclear protein level: immunofluorescence/high content analysis (CAL-120)
- Assay type: cell-based
- Run parameters: CAL-120 cells, 24 h, immunofluorescence; 50% reduction of nuclear CDK12 staining intensity; median; read-out: CDK12 degradation IF, DC50- [mol/l] (median)
Observed property: DC50 (nM)

CCc1cnn2c(NCc3nc4c(OC)cccc4[nH]3)nc(N3CCOCC3)nc12 [Example 433]: 4.32

A = N#Cc1cccc(-c2c[nH]c(CNc3nc(N4CCOCC4)nc4c(Br)cnn34)n2)c1 [Example 42]
B = CC(C)c1cnn2c(NCc3ncc(-c4ccccc4)[nH]3)nc(N3CCCCC3)nc12 [Example 36]
Request: Please choose the item with the lower DC50 value from this pair: A and B Response format: the label of the selected entry.
Response: A
(A: 1.25 nM, B: 86.5 nM)

P = Cc1ccc2[nH]c(CNc3nc(N4CCN(C)CC4)nc4c(C5CC5)cnn34)nc2c1 [Example 210]
Q = C[C@@H]1CCCCN1c1nc(NCc2nc3ccccc3[nH]2)n2ncc(Br)c2n1 [Example 140]
Request: Could you check which of P and Q has a smaller value for DC50? Select an item and report its label.
Response: P
